# Target or system: Mitogen-activated protein kinase 9 (Homo sapiens);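 note: reported figure is the mean inhibition of JNK2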
# Experimental setup: at 1 µM
Assay endpoint: inhibition (%)

{"Molecule": "O=C1NC(=O)C(c2cccc(Cl)c2)=C1Nc1ccc(Cl)c(C(=O)O)c1", "Assay endpoint": "inhibition", "Data value": 3.47}
{"Molecule": "CN(C)CCCNc1nccc(-c2c(-c3ccc(F)cc3)nn3cc(C(F)(F)F)ccc23)n1", "Assay endpoint": "inhibition", "Data value": 11}
{"Molecule": "NCc1ccc(-n2c(-c3nonc3N)nc3cnccc32)cc1", "Assay endpoint": "inhibition", "Data value": 6.05}
{"Molecule": "NC(=O)c1cc(-c2ccc(F)cc2)cc(-c2ccncc2)c1N", "Assay endpoint": "inhibition", "Data value": 2.06}
{"Molecule": "CN(C)c1ccc2c(c1)/C(=C/Nc1ccc(S(N)(=O)=O)cc1)C(=O)N2", "Assay endpoint": "inhibition", "Data value": 2.71}
{"Molecule": "Fc1ccc(-c2nc3n(c2-c2ccncc2)CCS3)cc1", "Assay endpoint": "inhibition", "Data value": 25.9}
{"Molecule": "NS(=O)(=O)c1ccc(N/N=C2\\C(=O)Nc3ccc(-c4cnco4)cc32)cc1", "Assay endpoint": "inhibition", "Data value": 2.38}
{"Molecule": "C#Cc1cccc(Nc2ncnc3ccc(OCCCCNCCS(C)(=O)=O)cc23)c1", "Assay endpoint": "inhibition", "Data value": 4.58}
{"Molecule": "COc1ccc2cc(-c3c(-c4ccncc4)nc(-c4ccc(S(C)(=O)=O)cc4C)n3C)ccc2c1", "Assay endpoint": "inhibition", "Data value": 10.1}
{"Molecule": "CN(c1ccc(NC(=O)Nc2c(Cl)cccc2Cl)cc1)c1ccnc(Nc2cccc(CS(C)(=O)=O)c2)n1", "Assay endpoint": "inhibition", "Data value": 8.85}
{"Molecule": "COc1cccc(/C=N/Nc2ncnc3c2cnn3-c2cccc(OC)c2)c1", "Assay endpoint": "inhibition", "Data value": 5.5}
{"Molecule": "c1ccc(-c2n[nH]cc2-c2ccnc(-c3ccc(OCCN4CCOCC4)cc3)c2)nc1", "Assay endpoint": "inhibition", "Data value": 5.45}
{"Molecule": "COc1ccc(C2=C(N3CCc4ccccc43)C(=O)NC2=O)cc1", "Assay endpoint": "inhibition", "Data value": 7.16}
{"Molecule": "COc1ccc2ncn(-c3cc(O[C@H](C)c4ccccc4Cl)c(C(N)=O)s3)c2c1", "Assay endpoint": "inhibition", "Data value": -0.22}
{"Molecule": "COc1cc(Nc2ncc(-c3ccccc3)o2)cc(OC)c1OC", "Assay endpoint": "inhibition", "Data value": -3.35}
{"Molecule": "CCc1nccc2c1nc(-c1nonc1N)n2CC", "Assay endpoint": "inhibition", "Data value": 3.34}
{"Molecule": "COc1ccc(-c2ccc3c(NC(=O)C4CC4)n[nH]c3n2)cc1", "Assay endpoint": "inhibition", "Data value": 1.85}
{"Molecule": "Cc1nnc(-c2ccc(C)c(-c3ccc(C(=O)NCc4ccc(Cl)cc4)cc3)c2)o1", "Assay endpoint": "inhibition", "Data value": 4.44}
{"Molecule": "NC(=O)c1cc(-c2ccncc2)cc(-c2ccccc2)c1N", "Assay endpoint": "inhibition", "Data value": 6.49}
{"Molecule": "COc1ccc2cc(-c3c(-c4ccncc4)nc(-c4ccc([S+](C)[O-])cc4C)n3C)ccc2c1 (stereo unspecified)", "Assay endpoint": "inhibition", "Data value": 8.03}
{"Molecule": "COc1cc(N2CCN(C(C)C)CC2)ccc1Nc1nc(Nc2ccc(F)cc2C(=O)NC[C@@H](O)CO)c2cc[nH]c2n1", "Assay endpoint": "inhibition", "Data value": 57.4}

Source listed as ChEMBL document CHEMBL1961873.
